These entries and their values trace back to patent US20240016781A1.

- protocol.description: PK of voruciclib, daily dosing continuously (Table 4)
- Format: in vivo
- assay.setup: human, plasma, oral, 350 mg, Day 15, daily dosing continuously, mean; read-out: AUC0-t
measured.property: AUC(0-t) (µg·h/mL)
// return numeric value only (unit: µg·h/mL, not printed)

Could you tell me which AUC(0-t) is on file for CN1CC[C@@H](c2c(O)cc(O)c3c(=O)cc(-c4ccc(C(F)(F)F)cc4Cl)oc23)[C@@H]1CO ?
26.7

* * *

- protocol.description: PK of voruciclib, daily dosing continuously (Table 4)
- Type: in vivo
- assay.setup: human, plasma, oral, 500 mg, Day 15, daily dosing continuously, mean
- Text: Voruciclib half life is designated as t½ in the tables (expressed in hours). Voruciclib volume of distribution is designated as Vz/F (expressed in liters).
measured.property: AUC(0-inf) (µg·h/mL)
Return type: number; implicit unit µg·h/mL.

Given the entry CN1CC[C@@H](c2c(O)cc(O)c3c(=O)cc(-c4ccc(C(F)(F)F)cc4Cl)oc23)[C@@H]1CO , report its measured AUC(0-inf).
108

* * *

- protocol.description: PK of voruciclib, 2 weeks of daily dosing followed by 1 week without dosing in a 21-day cycle (Table 3)
- Assay type: in vivo, human
- assay.setup: human, plasma, oral, 75 mg, Day 13, 2 weeks daily dosing/1 week off, mean; read-out: Vz/F
measured.property: Vd/F
# number then unit; no other words

Would you mind telling me what Vd/F value was observed for CN1CC[C@@H](c2c(O)cc(O)c3c(=O)cc(-c4ccc(C(F)(F)F)cc4Cl)oc23)[C@@H]1CO [Voruciclib] ?
349 L

* * *

- protocol.description: PK of voruciclib, 2 weeks of daily dosing followed by 1 week without dosing in a 21-day cycle (Table 3)
- Assay type: in vivo, human
- assay.setup: human, plasma, oral, 150 mg, Day 1, 2 weeks daily dosing/1 week off, mean
measured.property: half-life (h)
Give the value in h but do not write h after it.

Could you tell me which half-life is on file for CN1CC[C@@H](c2c(O)cc(O)c3c(=O)cc(-c4ccc(C(F)(F)F)cc4Cl)oc23)[C@@H]1CO ?
32.5

* * *

- protocol.description: PK of voruciclib, daily dosing continuously (Table 4)
- Type: in vivo
- assay.setup: human, plasma, oral, 250 mg, Day 15, daily dosing continuously, mean
measured.property: AUC(0-inf) (ng·h/mL)
Expressed in ng·h/mL, but write only the number.

What value of AUC(0-inf) has been reported for the following molecule? CN1CC[C@@H](c2c(O)cc(O)c3c(=O)cc(-c4ccc(C(F)(F)F)cc4Cl)oc23)[C@@H]1CO
54500

* * *

- Test system: KYSE-410
- protocol.description: 72-hour CellTiter-Glo 2.0 growth inhibition screen (single agent, 9x9 combination dose matrix)
- Type: cell-based
- assay.setup: KYSE-410, Esophageal; Additional Single Agent Responses (inhibition, % I), 72 h
- Description: Growth inhibition was determined using a 72-hour CellTiter-Glo®2.0 proliferation assay. Combination format was a 9×9 dose matrix. […] Results have been supplied as both Chalice Analyzer files (.mcc) and raw luminescence data. Cell lines that have been preserved in liquid nitrogen are thawed and expanded in growth media (see Appendix I). […] Assay plates are incubated with compound for 3 days and are then analyzed using CellTiter-Glo 2.0. […]
measured.property: pIC50
Friendly reminder that pIC50 comes from taking -log10 of the concentration in mol/L.

Any idea what pIC50 came out for CN1CC[C@@H](c2c(O)cc(O)c3c(=O)cc(-c4ccc(C(F)(F)F)cc4Cl)oc23)[C@@H]1CO on KYSE-410?
5.72

* * *

- protocol.description: PK of voruciclib, 2 weeks of daily dosing followed by 1 week without dosing in a 21-day cycle (Table 3)
- Format: in vivo, human
- assay.setup: human, plasma, oral, 600 mg, Day 1, 2 weeks daily dosing/1 week off, mean; read-out: AUC0-24
- Description: Voruciclib half life is designated as t½ in the tables (expressed in hours). Voruciclib volume of distribution is designated as Vz/F (expressed in liters).
measured.property: AUC(0-t) (ng·h/mL)
Answer in ng·h/mL, number only, no unit symbol.

For CN1CC[C@@H](c2c(O)cc(O)c3c(=O)cc(-c4ccc(C(F)(F)F)cc4Cl)oc23)[C@@H]1CO , what is its reported AUC(0-t)?
24800

* * *

- protocol.description: PK of voruciclib, daily dosing continuously (Table 4)
- Format: in vivo
- assay.setup: human, plasma, oral, 500 mg, Day 15, daily dosing continuously, mean; read-out: AUC0-t
measured.property: AUC(0-t)

Any idea what its AUC(0-t) is? The molecule is CN1CC[C@@H](c2c(O)cc(O)c3c(=O)cc(-c4ccc(C(F)(F)F)cc4Cl)oc23)[C@@H]1CO [Voruciclib]
40500 ng·h/mL

* * *

- protocol.description: PK of voruciclib, daily dosing continuously (Table 4)
- Format: in vivo
- assay.setup: human, plasma, oral, 75 mg, Day 15, daily dosing continuously, median
measured.property: Tmax (h)
Number only, in h; omit the unit.

Item CN1CC[C@@H](c2c(O)cc(O)c3c(=O)cc(-c4ccc(C(F)(F)F)cc4Cl)oc23)[C@@H]1CO has what recorded Tmax?
2

* * *

- protocol.description: PK of voruciclib, 2 weeks of daily dosing followed by 1 week without dosing in a 21-day cycle (Table 3)
- Type: in vivo, human
- assay.setup: human, plasma, oral, 75 mg, Day 1, 2 weeks daily dosing/1 week off, mean
measured.property: Cmax

Fill in the blank: the reported Cmax of CN1CC[C@@H](c2c(O)cc(O)c3c(=O)cc(-c4ccc(C(F)(F)F)cc4Cl)oc23)[C@@H]1CO [Voruciclib] is ____.
193 ng/mL

* * *

- protocol.description: PK of voruciclib, 2 weeks of daily dosing followed by 1 week without dosing in a 21-day cycle (Table 3)
- Assay type: in vivo, human
- assay.setup: human, plasma, oral, 300 mg, Day 13, 2 weeks daily dosing/1 week off, n = 1
measured.property: AUC(0-inf) (ng·h/mL)
Use ng·h/mL as the unit, but write only the number.

Find the recorded AUC(0-inf) belonging to CN1CC[C@@H](c2c(O)cc(O)c3c(=O)cc(-c4ccc(C(F)(F)F)cc4Cl)oc23)[C@@H]1CO and report it.
59300

* * *

- protocol.description: PK of voruciclib, daily dosing continuously (Table 4)
- Format: in vivo
- assay.setup: human, plasma, oral, 250 mg, Day 1, daily dosing continuously, mean
measured.property: Cmax
A complete answer gives the number followed by the unit.

Please report the recorded Cmax for CN1CC[C@@H](c2c(O)cc(O)c3c(=O)cc(-c4ccc(C(F)(F)F)cc4Cl)oc23)[C@@H]1CO .
472 ng/mL

* * *

- protocol.description: PK of voruciclib, 2 weeks of daily dosing followed by 1 week without dosing in a 21-day cycle (Table 3)
- Assay type: in vivo, human
- assay.setup: human, plasma, oral, 600 mg, Day 1, 2 weeks daily dosing/1 week off, mean
measured.property: half-life (h)
Give just the numeric value; h need not be written.

half-life lookup needed for CN1CC[C@@H](c2c(O)cc(O)c3c(=O)cc(-c4ccc(C(F)(F)F)cc4Cl)oc23)[C@@H]1CO , thanks.
32.5

* * *

- protocol.description: PK of voruciclib, 2 weeks of daily dosing followed by 1 week without dosing in a 21-day cycle (Table 3)
- Assay type: in vivo, human
- assay.setup: human, plasma, oral, 300 mg, Day 1, 2 weeks daily dosing/1 week off, mean; read-out: AUC0-24
measured.property: AUC(0-t) (ng·h/mL)
Numeric only. Scale: ng·h/mL

Give the measured AUC(0-t) of CN1CC[C@@H](c2c(O)cc(O)c3c(=O)cc(-c4ccc(C(F)(F)F)cc4Cl)oc23)[C@@H]1CO [Voruciclib] .
15700

* * *

- Test system: NCI-H1792
- protocol.description: 72-hour CellTiter-Glo 2.0 growth inhibition screen (single agent, 9x9 combination dose matrix)
- Assay type: cell-based
- assay.setup: NCl-H1792, Lung; Additional Single Agent Responses (inhibition, % I), 72 h
measured.property: IC50

Can you share its IC50? I mean this compound: CN1CC[C@@H](c2c(O)cc(O)c3c(=O)cc(-c4ccc(C(F)(F)F)cc4Cl)oc23)[C@@H]1CO [MEI-522(Voruciclib)]
1360 nM

* * *

- protocol.description: PK of voruciclib, 2 weeks of daily dosing followed by 1 week without dosing in a 21-day cycle (Table 3)
- Type: in vivo, human
- assay.setup: human, plasma, oral, 850 mg, Day 1, 2 weeks daily dosing/1 week off, median
measured.property: Tmax

Requested field: Tmax. Item: CN1CC[C@@H](c2c(O)cc(O)c3c(=O)cc(-c4ccc(C(F)(F)F)cc4Cl)oc23)[C@@H]1CO [Voruciclib]
9 h

* * *

- protocol.description: PK of voruciclib, 2 weeks of daily dosing followed by 1 week without dosing in a 21-day cycle (Table 3)
- Format: in vivo, human
- assay.setup: human, plasma, oral, 75 mg, Day 1, 2 weeks daily dosing/1 week off, mean
measured.property: AUC(0-inf) (ng·h/mL)
Report only the number, with the unit ng·h/mL understood.

What AUC(0-inf) value was documented for this molecule, CN1CC[C@@H](c2c(O)cc(O)c3c(=O)cc(-c4ccc(C(F)(F)F)cc4Cl)oc23)[C@@H]1CO [Voruciclib] ?
4210
